Target: PD-1/PD-L1 interaction (Homo sapiens)
Construct: expressed in transfected cells; host or cells: CHO cells (aAPC-PD-L1) co-cultured with Jurkat cells overexpressing PD-1 and an NFAT-luciferase reporter
Sequence (Q9NZQ7 19-290): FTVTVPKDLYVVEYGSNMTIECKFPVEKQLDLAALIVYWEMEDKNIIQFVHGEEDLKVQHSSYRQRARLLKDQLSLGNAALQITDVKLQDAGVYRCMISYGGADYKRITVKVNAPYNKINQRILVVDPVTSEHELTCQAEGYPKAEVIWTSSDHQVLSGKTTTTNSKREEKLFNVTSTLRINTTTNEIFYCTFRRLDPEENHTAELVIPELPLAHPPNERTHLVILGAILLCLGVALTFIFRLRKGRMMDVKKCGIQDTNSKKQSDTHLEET
Assay: PD-1/PD-L1 NFAT reporter co-culture assay
Format: cell-based
Conditions: Jurkat PD-1 NFAT-luciferase cells co-cultured with aAPC-PD-L1 CHO cells, 6 hrs at 37° C.; read-out: EC50 NFAT Luciferase
measured.property: pEC50
Hey, just a heads up that pEC50 is the negative log base 10 of the concentration in molar.

Reference set, count: 2
INSERT INTO assay_data (smiles_repr, measured_property, value) VALUES
  ('CC(=O)NCCNCc1ccc(OCc2cccc(-c3cccc(COc4ccc(CNCCNC(C)=O)c(-c5cncc(C#N)c5)c4)c3C)c2C)cc1-c1cncc(C#N)c1', 'pEC50', 5.13),
  ('COc1ccc(COc2nc(OCc3cccc(-c4cccc(COc5nc(OCc6ccc(OC)nc6)c(CNC[C@@H](O)CC(=O)O)cc5Br)c4C)c3C)c(Br)cc2CNC[C@@H](O)CC(=O)O)cn1', 'pEC50', 6.52);

Okay, now this compound:
Value of measured pEC50 for the entry C[C@@](CO)(NCc1cc(Cl)c(O[C@H]2CCc3c(-c4cccc(-c5ccc(OCCN6CC[C@@H](O)C6)cc5)c4Cl)cccc32)nc1OCc1cncc(C#N)c1)C(=O)O : 6.05
